EXPERIMENT: Inhibition of NS5A in Hepatitis C virus subtype 1a replicon infected in human HuH7 cells assessed as reduction in viral replication
MEASURE: log10(EC50) (log10 of the value in nM)
Reminder: these figures are log10 of reported EC50, in nM before transformation.

Worked cases, log10(EC50) given:
[
  {
    "COMPOUND": "CCCC(=O)Nc1ccc(-c2ccc(-c3c[nH]c([C@@H]4CCCN4C(=O)[C@H](NC(=O)OC)c4ccccc4)n3)cc2)cc1",
    "log10(EC50)": 3.45
  },
  {
    "COMPOUND": "CCCC(=O)Nc1ccc(-c2ccc(-c3c[nH]c([C@@H]4CCCN4C(=O)[C@H](NC(=O)CCCCCCc4ccccc4)c4ccccc4)n3)cc2)cc1",
    "log10(EC50)": 2.81
  },
  {
    "COMPOUND": "O=C(CCCNC(=O)OCc1ccccc1)N[C@@H](C(=O)N1CCC[C@H]1c1nc(-c2ccc(-c3ccc(NC(=O)c4ccccc4)cc3)cc2)c[nH]1)c1ccccc1",
    "log10(EC50)": 1.53
  },
  {
    "COMPOUND": "COC(=O)N[C@@H](C(=O)N1CCC[C@H]1c1ncc(-c2ccc(-c3ccc(-c4cnc([C@@H]5CCCN5C(=O)[C@H](NC(=O)OC)c5ccccc5)[nH]4)cc3)cc2)[nH]1)c1ccccc1",
    "log10(EC50)": -1.01
  }
]

-- ask Please look up its log10(EC50): COC1CCC(C(=O)Nc2ccc(-c3ccc(-c4c[nH]c([C@@H]5CCCN5C(=O)[C@H](NC(=O)CCCNC(=O)OCc5ccccc5)c5ccccc5)n4)cc3)cc2)CC1 (stereo partly specified)
-- reply 0.91

-- ask Consider the compound shown here: COCc1ccc(C(=O)Nc2ccc(-c3ccc(-c4c[nH]c([C@@H]5CCCN5C(=O)[C@H](NC(=O)CCCNC(=O)OCc5ccccc5)c5ccccc5)n4)cc3)cc2)cc1 What is its recorded log10(EC50)?
-- reply 0.54
